Tested on: Yeast: Candida albicans, Candida valida, Rhodotorula rura, Saccharomyces cerevisiae
Test: Preservation test with periodic inoculation, yeast assessment
Type: cell-based
Details: Polymer P5 (HP56); sample stored 60 d at 40° C.
test.readout: 60 d 40° C., yeast assess., 4th inoculation

{"columns": ["molecule", "observed"],
 "data": [
  ["Cn1sc(Cl)cc1=O [CMIT, 5-chloro-N-methylisothiazolin-3-one]", "++"],
  ["O=c1[nH]sc2ccccc12 [BIT, 1,2-benzisothiazolin-3-one]", "++"],
  ["CCCCCCCCCCCCCCCC[n+]1ccccc1 [CPC, cetylpyridinium chloride]", "0 (moderate growth, max. 400 colonies)"],
  ["CCCCNC(=O)OCC#CI [Iodopropynyl butyl carbamate, iodopropynyl butyl carbamate]", "+"],
  ["Cn1sccc1=O [MIT, methyl-4-isothiazolin-3-one]", "++"]
]}

INPUT: Look up Yeast: Candida albicans, Candida valida, Rhodotorula rura, Saccharomyces cerevisiae data: 60 d 40° C., yeast assess., 4th inoculation of CCCCCCCCn1sc(Cl)c(Cl)c1=O [DCOIT, dichloroctylisothiazolinone] , then report it.
OUTPUT: ++

INPUT: Give 60 d 40° C., yeast assess., 4th inoculation for CCCCCCCCn1sccc1=O [OIT, octylisothiazolinone] tested on Yeast: Candida albicans, Candida valida, Rhodotorula rura, Saccharomyces cerevisiae.
OUTPUT: ++
